target: rh integrin α4β7 (R&D Systems #5397-A30) (human) (UniProt P13612); test: α4β7-MAdCAM competition ELISA
Bridge positions count the residues as written; N and C are the ends. Square brackets hold non-standard residues; d marks the D form. 1Nal = N[C@@H](Cc1cccc2ccccc12)C(=O)O; 2Nal = N[C@@H](Cc1ccc2ccccc2c1)C(=O)O; NMeR = CN[C@@H](CCCNC(=N)N)C(=O)O; β3hE = N[C@@H](CCC(=O)O)CC(=O)O; NMeK = CN[C@@H](CCCCN)C(=O)O; Pen = CC(C)(S)[C@H](N)C(=O)O; dNMeK = CN[C@H](CCCCN)C(=O)O
RECORDED_ENDPOINT: IC50

Examples from the recorded data:
[
  {
    "BINDER": "Ac-[Pen][NMeR]SDTL[Pen][2Nal][dE][dK]-NH2 (disulfide 1-7 (inferred)) [SEQ ID NO 9]",
    "IC50": "> 10 nM"
  },
  {
    "BINDER": "Ac-[Pen][NMeR]SDTL[Pen][1Nal][dE][dNMeK]-NH2 (disulfide 1-7; SMILES CC(=O)N[C@@H]1C(=O)N(C)[C@@H](CCCNC(=N)N)C(=O)N[C@@H](CO)C(=O)N[C@@H](CC(=O)O)C(=O)N[C@@H]([C@@H](C)O)C(=O)N[C@@H](CC(C)C)C(=O)N[C@H](C(=O)N[C@@H](Cc2cccc3ccccc23)C(=O)N[C@H](CCC(=O)O)C(=O)N(C)[C@H](CCCCN)C(N)=O)C(C)(C)SSC1(C)C) [SEQ ID NO 12]",
    "IC50": "> 25 nM"
  }
]

# evaluate next
For Ac-[Pen][NMeR]SDTL[Pen][1Nal][β3hE][NMeK]-NH2 (disulfide 1-7 (inferred); also: homodimer via DIG) [SEQ ID NO 142] , what is its reported IC50?
< 10 nM
